Below, each entry is listed alongside its reported IC50.
target: S. pyogenes M1 GAS streptokinase expression, plasminogen activation OD405; assay: S. pyogenes plasminogen activation signal decrease – absorbance readout, M1 GAS, streptokinase expression inhibitor project, dose response (AID 2137)
Records with an inconclusive call do not appear.

[[record]]
molecule = "Clc1cccc(Cl)c1CSc1nnc(/C=C/c2ccccc2)o1"
reported_metric = "IC50"
result = "4.39 µM"

[[record]]
molecule = "CC[C@@H](C)[C@H](NC(=O)OC(C)(C)C)c1nnc(S(=O)(=O)Cc2cc(C)ccc2C)o1"
reported_metric = "IC50"
result = "4.15 µM"

[[record]]
molecule = "O=C(Nc1cc(S(=O)(=O)Nc2ccc(Cl)cc2)ccc1N1CCCCC1)c1ccc(F)cc1"
reported_metric = "IC50"
result = "4 µM"

[[record]]
molecule = "CCCOc1ccc(-c2nc(OC)c3ccccc3n2)cc1"
reported_metric = "IC50"
result = "4.03 µM"

[[record]]
molecule = "Cc1ccc(C(=O)C(c2ccccc2)N2Cc3ccccc3C2=N)cc1 (configuration not stated)"
reported_metric = "IC50"
result = "8.38 µM"

[[record]]
molecule = "O=C(c1ccc(F)cc1)n1c2ccccc2c2ccccc21"
reported_metric = "IC50"
result = "6.27 µM"

[[record]]
molecule = "Cc1ccc(C(=O)N2c3ccccc3Sc3ccccc32)cc1"
reported_metric = "IC50"
result = "46.5 µM"

[[record]]
molecule = "CC(C)c1ccc(NC(=O)c2cc(S(=O)(=O)NCC3COc4ccccc4O3)ccc2F)cc1 (configuration not stated)"
reported_metric = "IC50"
result = "3.65 µM"

[[record]]
molecule = "COc1ccc(SCC(=O)N2c3ccccc3Sc3ccccc32)cc1"
reported_metric = "IC50"
result = "6.54 µM"

[[record]]
molecule = "CN1C(=O)/C(=C\\c2cccn2-c2ccc3ccccc3c2)C(=O)NC1=S"
reported_metric = "IC50"
result = "5.42 µM"


Problem: Form field: reported IC50 of O=C(c1ccc(OC(F)(F)F)cc1)n1c2ccccc2c2ccccc21
Solution: 6.36 µM

Problem: Let us now turn to Cc1cc(C)c(NC(=O)c2oc3ccccc3c2COc2ccccc2)c(C)c1
Solution: 98.8 µM

Problem: Now the molecule FC(F)(F)c1nc(N2CCN(c3ccccc3)CC2)nc2c1CCCCC2
Solution: 1.73 µM

Problem: Now give it for COc1ccc(Nc2ncnc3scc(-c4ccc(OC)cc4)c23)cc1 too.
Solution: 5.7 µM

###

biological target: S. pyogenes M1 GAS streptokinase expression, plasminogen activation OD405; assay: S. pyogenes plasminogen activation signal decrease – absorbance readout, M1 GAS, streptokinase expression inhibitor project, dose response (AID 2137)
Inconclusive results are not listed. Activity calls are given as the source filed them.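 How the source made its calls: active means IC50 at most ten times the top tested dose; inconclusive means flat fit with 30 to 70% activity, or an invalid poor fit; inactive means the rest.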
Please state which outcome applies, choosing from active, inactive

Record excerpt, results attached:
[[record]]
compound = "COc1ccc(-c2csc3ncnc(N4CCN(c5ccccc5Cl)CC4)c23)cc1"
label_value = "active"

[[record]]
compound = "CN(C)c1ccc(C(=O)n2c3ccccc3c3ccccc32)cc1"
label_value = "active"

[[record]]
compound = "Cc1ccc(C(=O)n2c3ccccc3c3ccccc32)cc1"
label_value = "active"


Problem: Query: recorded result category for CCC1CCCCN1S(=O)(=O)c1ccc(NC(=O)c2nc(S(C)(=O)=O)ncc2Cl)cc1 (stereo unspecified) in this test
Solution: active

Problem: Try the compound O=C(c1ccccc1C(F)(F)F)n1c2ccccc2c2ccccc21
Solution: active

Problem: And the next one, CC1CCN(C(=O)N2c3ccccc3Sc3ccccc32)CC1 ?
Solution: active

Problem: What about this compound? FC(F)(F)c1cccc(-c2cc3ccccc3nc2N2CCCC2)c1
Solution: active

Problem: Here is the next compound: CCN(CC)C(=S)SCC(=O)Nc1nc(-c2ccccc2)c(-c2ccccc2)o1
Solution: active

Problem: Try this compound too: O=C(CSc1ccc(Cl)cc1)N1c2ccccc2Sc2ccccc21
Solution: active

Problem: Proceed to CC(C)(C)N/N=C1\CC(c2ccccc2)Oc2ccccc21 (stereo unspecified)
Solution: active

Problem: Now try CCCCn1c(=O)c(C(=O)NCc2ccccc2)c(O)c2ccccc21 .
Solution: inactive
